Recorded IC50 values for a group of compounds are listed next.
System: H929 cells
Assay: Cell viability assay (H929 10 FBS)
Format: cell-based
Settings: Homo sapiens, NCI-H929, 24 hours, read-out: H929_10FBS IC50
metric: IC50

compound=COCCN1CCCN(C(=O)O[C@H]2/C=C/COC(C)(C)C(=O)NS(=O)(=O)c3ccc4c(c3)N(C[C@@H]3CC[C@H]32)C[C@@]2(CCCc3cc(Cl)ccc32)CO4)CC1 recorded_result="< 500 nM"
compound="CC(C)(C)OC(=O)N1CCC[C@H](OC(=O)NS(=O)(=O)c2ccc3c(c2)N(CC2CCC2)CC2(CCCc4cc(Cl)ccc42)CO3)C1 (stereo partly drawn)" recorded_result="> 1000 nM"
compound=CCN1C/C=C/[C@H](OC(=O)N(C)C)[C@@H]2CC[C@H]2CN2C[C@@]3(CCCc4cc(Cl)ccc43)COc3ccc(cc32)S(=O)(=O)NC(=O)C1(C)C recorded_result="< 500 nM"

====

System: H929 cells
Assay: Cell viability assay (H929 10 FBS)
Assay type: cell-based
Conditions: Homo sapiens, NCI-H929, 24 hours, read-out: H929_10FBS IC50
metric: IC50

test_smiles=CC(C)N1CCN(C(=O)O[C@H]2/C=C/COC(C)(C)C(=O)NS(=O)(=O)c3ccc4c(c3)N(C[C@@H]3CC[C@H]32)C[C@@]2(CCCc3cc(Cl)ccc32)CO4)CC1 study_system="H929 cells" recorded_result="< 500 nM"
test_smiles=CC1(C)OC/C=C/[C@H](OC(=O)N2CCOCC2)[C@@H]2CC[C@H]2CN2C[C@@]3(CCOc4cc(Cl)ccc43)COc3ccc(cc32)S(=O)(=O)NC1=O study_system="H929 cells" recorded_result="> 1000 nM"
test_smiles=CN(C)C(=O)CO[C@@H]1/C=C/COC(C)(C)C(=O)NS(=O)(=O)c2ccc3c(c2)N(C[C@@H]2CC[C@H]21)C[C@@]1(CCCc2cc(Cl)ccc21)CO3 study_system="H929 cells" recorded_result="< 500 nM"

====

Tested on: H929 cells
Experiment: Cell viability assay (H929 10 FBS)
Assay type: cell-based
Settings: Homo sapiens, NCI-H929, 24 hours, read-out: H929_10FBS IC50
metric: IC50

compound="CN(C(=O)O[C@H]1/C=C/COC(C)(C)C(=O)NS(=O)(=O)c2ccc3c(c2)N(C[C@@H]2CC[C@H]21)C[C@@]1(CCOc2cc(Cl)ccc21)CO3)C1COC1 [Example 303]" recorded_result="< 500 nM"
compound="CC(C)(C)OC(=O)N1CCC(CC(=O)NS(=O)(=O)c2ccc3c(c2)N(CC2CCC2)CC2(CCCc4cc(Cl)ccc42)CO3)CC1 (stereo not shown) [Example 22]" recorded_result="> 1000 nM"
compound="CC1(C)OC/C=C/[C@H](OC(=O)NC2COC2)[C@@H]2CC[C@H]2CN2C[C@@]3(CCCc4cc(Cl)ccc43)COc3ccc(cc32)S(=O)(=O)NC1=O [Example 192]" recorded_result="< 500 nM"
compound="COC[C@H]1CCCN1C(=O)O[C@H]1/C=C/COC(C)(C)C(=O)NS(=O)(=O)c2ccc3c(c2)N(C[C@@H]2CC[C@H]21)C[C@@]1(CCCc2cc(Cl)ccc21)CO3 [Example 161]" recorded_result="< 1000 nM"
